target: PI3K-alpha (Homo sapiens); experiment: PI3K-alpha fluorescence polarization assay; assay type: biochemical; conditions: read-out: PI3Kα Avg. IC50
Sequence (P42336 whole entry, species assumed): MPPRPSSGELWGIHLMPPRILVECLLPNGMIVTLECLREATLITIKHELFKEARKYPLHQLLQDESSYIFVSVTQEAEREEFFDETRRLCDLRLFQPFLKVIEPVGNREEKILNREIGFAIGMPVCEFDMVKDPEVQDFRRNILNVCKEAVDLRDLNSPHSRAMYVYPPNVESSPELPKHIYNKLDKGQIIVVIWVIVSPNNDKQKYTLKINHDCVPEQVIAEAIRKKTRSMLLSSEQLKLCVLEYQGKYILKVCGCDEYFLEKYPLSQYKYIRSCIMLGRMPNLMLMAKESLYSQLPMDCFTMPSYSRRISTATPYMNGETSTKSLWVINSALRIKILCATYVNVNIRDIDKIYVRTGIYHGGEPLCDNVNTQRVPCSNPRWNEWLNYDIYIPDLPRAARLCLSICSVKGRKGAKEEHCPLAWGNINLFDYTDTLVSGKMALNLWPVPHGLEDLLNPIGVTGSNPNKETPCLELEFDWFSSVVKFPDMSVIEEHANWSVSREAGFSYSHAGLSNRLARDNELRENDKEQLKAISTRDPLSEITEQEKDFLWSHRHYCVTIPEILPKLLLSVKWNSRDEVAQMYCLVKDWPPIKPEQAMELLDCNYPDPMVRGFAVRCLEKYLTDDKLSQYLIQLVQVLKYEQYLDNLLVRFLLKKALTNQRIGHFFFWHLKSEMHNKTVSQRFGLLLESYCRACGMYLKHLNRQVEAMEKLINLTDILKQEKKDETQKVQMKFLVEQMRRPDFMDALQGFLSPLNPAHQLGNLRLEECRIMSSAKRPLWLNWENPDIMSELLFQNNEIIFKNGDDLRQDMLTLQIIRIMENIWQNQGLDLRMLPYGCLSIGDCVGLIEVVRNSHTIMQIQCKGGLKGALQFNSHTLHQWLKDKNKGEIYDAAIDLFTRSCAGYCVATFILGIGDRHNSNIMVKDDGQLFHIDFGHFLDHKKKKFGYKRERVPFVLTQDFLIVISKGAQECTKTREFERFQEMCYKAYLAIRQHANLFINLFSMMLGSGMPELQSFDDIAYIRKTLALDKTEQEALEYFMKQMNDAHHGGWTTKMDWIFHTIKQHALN
Sequence (P27986 whole entry partner, species assumed): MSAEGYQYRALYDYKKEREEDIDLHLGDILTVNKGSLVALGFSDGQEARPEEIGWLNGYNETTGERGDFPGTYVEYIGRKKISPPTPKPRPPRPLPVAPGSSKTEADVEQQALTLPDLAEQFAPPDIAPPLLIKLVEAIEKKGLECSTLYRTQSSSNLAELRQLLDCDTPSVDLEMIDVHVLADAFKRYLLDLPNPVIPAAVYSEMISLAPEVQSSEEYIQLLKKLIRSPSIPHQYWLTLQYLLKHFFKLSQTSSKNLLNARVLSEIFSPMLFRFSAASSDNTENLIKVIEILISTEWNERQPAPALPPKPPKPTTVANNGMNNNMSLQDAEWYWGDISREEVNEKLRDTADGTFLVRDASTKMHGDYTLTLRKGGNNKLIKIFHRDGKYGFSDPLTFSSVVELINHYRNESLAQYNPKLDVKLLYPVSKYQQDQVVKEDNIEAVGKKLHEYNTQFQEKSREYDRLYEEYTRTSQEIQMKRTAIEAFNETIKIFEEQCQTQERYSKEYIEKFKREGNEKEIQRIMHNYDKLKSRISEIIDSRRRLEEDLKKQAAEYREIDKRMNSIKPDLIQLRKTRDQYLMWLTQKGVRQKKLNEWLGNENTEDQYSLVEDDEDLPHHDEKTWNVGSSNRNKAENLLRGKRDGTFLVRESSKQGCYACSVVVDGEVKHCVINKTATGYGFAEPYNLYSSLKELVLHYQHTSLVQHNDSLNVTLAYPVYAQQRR
assay.readout: IC50 (nM)
# unit: nM | format: bare number

Recorded IC50, per entry:
CCn1cc(/C=C2\Oc3ccc(NC(=O)Nc4ccc(C(=O)N(C)CCN(C)C)cc4)cc3C2=O)c2cc(OC)ccc21 : 0.6
COc1ccc2c(c1)c(C=C1Oc3cccc(O)c3C1=O)c(C)n2CCCCN1CCOCC1 : 235
Cn1cc(C=C2Oc3cc(O)cc(O)c3C2=O)c2cc(Br)ccc21 : 1040

Let's switch to this compound now.
Record for Cc1ccc2c(c1)C(=O)/C(=C/c1c(-c3ccccc3)[nH]c3ccccc13)S2 under target or system PI3K-alpha (Homo sapiens): IC50 reported as 9170

###

target: human TOR (Homo sapiens); construct: FLAG; experiment: mTOR enzyme assay (DELFIA, His6-S6K substrate); type: biochemical; conditions: read-out: mTOR Kinase Avg. IC50
# IC50 listing for each entry below

Example entries and their recorded answers appear below.
COc1ccc2[nH]c(-c3ccccc3)c(C=C3Oc4cc(O)cc(O)c4C3=O)c2c1 [Example 70] : < 30 nM
COc1ccc2c(c1)c(/C=C1\Oc3cc(O)cc(O)c3C1=O)c(C1CC1)n2CCn1cccn1 [Example 340] : < 0.82 nM

Continue with the compound presented below.
# IC50 (compound: O=C1C(=Cc2c[nH]c3c([N+](=O)[O-])cccc23)Oc2cc(O)cc(O)c21 [Example 180] ) is > 20000 nM

###

target: PI3K-gamma (Homo sapiens, UniProt P48736); assay: PI3K-gamma fluorescence polarization assay; format: biochemical; conditions: PI3Kγ Avg. IC50
Sequence (P48736 whole entry, species assumed): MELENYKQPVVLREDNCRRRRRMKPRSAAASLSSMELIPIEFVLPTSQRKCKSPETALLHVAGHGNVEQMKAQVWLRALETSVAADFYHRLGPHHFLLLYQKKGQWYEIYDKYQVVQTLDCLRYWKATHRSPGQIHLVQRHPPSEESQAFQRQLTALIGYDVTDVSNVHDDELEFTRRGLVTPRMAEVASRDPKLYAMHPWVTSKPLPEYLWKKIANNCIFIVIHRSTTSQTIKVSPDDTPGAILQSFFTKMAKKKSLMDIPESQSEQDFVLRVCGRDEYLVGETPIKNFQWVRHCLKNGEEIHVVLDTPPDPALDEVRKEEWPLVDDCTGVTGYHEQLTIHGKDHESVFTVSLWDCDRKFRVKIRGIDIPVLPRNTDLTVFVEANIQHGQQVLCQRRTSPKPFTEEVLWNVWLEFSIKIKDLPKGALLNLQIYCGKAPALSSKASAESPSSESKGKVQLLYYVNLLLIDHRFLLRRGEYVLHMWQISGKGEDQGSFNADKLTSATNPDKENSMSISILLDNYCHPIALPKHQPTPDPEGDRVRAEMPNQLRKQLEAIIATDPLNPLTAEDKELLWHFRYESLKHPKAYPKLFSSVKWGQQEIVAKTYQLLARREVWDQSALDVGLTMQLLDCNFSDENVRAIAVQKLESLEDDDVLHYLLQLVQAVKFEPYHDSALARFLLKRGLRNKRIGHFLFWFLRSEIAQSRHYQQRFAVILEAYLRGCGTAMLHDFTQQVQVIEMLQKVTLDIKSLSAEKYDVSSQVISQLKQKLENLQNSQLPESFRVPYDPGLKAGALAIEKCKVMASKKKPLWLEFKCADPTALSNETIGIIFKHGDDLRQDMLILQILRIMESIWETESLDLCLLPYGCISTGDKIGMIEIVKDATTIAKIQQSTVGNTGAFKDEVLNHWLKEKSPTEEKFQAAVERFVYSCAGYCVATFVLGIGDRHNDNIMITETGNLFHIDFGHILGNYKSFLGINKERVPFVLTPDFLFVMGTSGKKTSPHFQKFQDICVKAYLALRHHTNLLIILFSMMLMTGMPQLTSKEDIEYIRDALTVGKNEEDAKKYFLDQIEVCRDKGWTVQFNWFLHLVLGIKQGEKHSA
assay.readout: IC50 (nM)
Just the number in nM, nothing appended.

COc1ccc2c(c1)c(/C=C1\Oc3cc(O)cc(O)c3C1=O)c(C1CCC1)n2CCN1CCN(C)CC1 : 81
CNC(=O)Nc1ccc2c(c1)C(=O)/C(=C/c1c(-c3c(C)nn(C)c3C)[nH]c3c(C)cc(OC)cc13)O2 : 13.7
O=C1/C(=C/c2c[nH]c3ccc(Cl)cc23)Oc2cc(O)cc(O)c21 : 3630

// CNC(=O)Nc1ccc2c(c1)C(=O)/C(=C/c1c(-c3cccnc3)n(CCN3CCN(C)CC3)c3ccc(OC)cc13)O2 : IC50 value = 279

###

target: PI3K-gamma (Homo sapiens); assay: PI3K-gamma fluorescence polarization assay; format: biochemical; conditions: PI3Kγ Avg. IC50
Kindly apply the following: 1 if IC50 is less than 2 µM, 0 in every other case.

A selection of reference data follows.
COc1ccc2c(c1)c(/C=C1\Oc3cc(O)cc(C)c3C1=O)c(C)n2CCN1CCN(C)CC1 [Example 338] : 1
COc1ccc2c(c1)c(C=C1Oc3cc(O)cc(O)c3C1=O)c(C)n2CCCN(C)C [Example 106] : 1
CC(=O)c1ccc(-c2cccc3c2c(/C=C2\Oc4cc(O)cc(O)c4C2=O)cn3C)cc1 [Example 372] : 0
COc1ccc2c(c1)c(/C=C1\Oc3cc(O)c(F)cc3C1=O)c(C)n2CCN1CCN(C)CC1 [Example 351] : 0

## Task Please indicate whether the reported IC50 of CNC(=O)Nc1ccc2c(c1)C(=O)/C(=C/c1c(C)n(CCCN3CCN(CCO)CC3)c3ccc(OC)cc13)O2 [Compound 599] is strictly below 2 µM.
## Result 1

## Task Please check: IC50 for COc1ccc2[nH]c(-c3c(C)nn(C)c3C)c(/C=C3\Oc4ccc(NC(=O)Nc5cccc(C(=O)N(C)CCCN(C)C)c5)cc4C3=O)c2c1 [Compound 708] , strictly under 2 µM or not?
## Result 1

## Task Item CCn1c(-c2ccccc2)c(C=C2Oc3cc(O)cc(O)c3C2=O)c2ccccc21 [Example 213] : IC50 beneath 2 µM, strictly?
## Result 0

###

target: PI3K-alpha (Homo sapiens); test: PI3K-alpha fluorescence polarization assay; assay type: biochemical; conditions: read-out: PI3Kα Avg. IC50
// IC50 lookup, one value per entry
The figure you give is taken to be in nM; do not add the unit.

# example entries with known answers
Cc1[nH]c2ccc(Br)cc2c1/C=C1\Oc2c(ccc(O)c2O)C1=O : 232
COc1cc(-c2cccnc2)c2[nH]cc(/C=C3\Oc4cc(O)ccc4C3=O)c2c1 : 81.5

Per the reported PI3K-alpha (Homo sapiens) data, COc1ccc2[nH]cc(C=C3Oc4c(OC)cccc4C3=O)c2c1 has IC50 of 9860

Sample COc1ccc2c(c1)c(C=C1Oc3cc(O)cc(O)c3C1=O)c(C)n2CCCCN1CCC(N(C)C)C1 (stereo not shown) , system: PI3K-alpha (Homo sapiens). Its IC50 is 8.3

Tested on PI3K-alpha (Homo sapiens), the item COc1ccc(NC(=O)Nc2ccc3c(c2)C(=O)/C(=C/c2cn(CCCN(C)C)c4ccc(OC)cc24)O3)cc1 showed IC50 equal to 104

Record for O=C1/C(=C/c2c(-c3ccccc3)[nH]c3ccccc23)Sc2ccccc21 under target or system PI3K-alpha (Homo sapiens): IC50 reported as 287

Form field, IC50 with PI3K-alpha (Homo sapiens), item CN(C)C(=O)Nc1ccc(-c2cccc3c2c(/C=C2\Oc4cc(O)cc(O)c4C2=O)cn3C)cc1 : 460

Fill in: PI3K-alpha (Homo sapiens) IC50 for COc1cc(-c2ccncc2)c2c(c1)c(/C=C1\Oc3cc(O)ccc3C1=O)cn2CCCC#N = 589

###

molecular target: PI3K-gamma (Homo sapiens); assay: PI3K-gamma fluorescence polarization assay; assay type: biochemical; details: PI3Kγ Avg. IC50
assay.readout: log10 IC50 (log10 of the value in nM)
Reminder: these figures are log10 of reported IC50, in nM before transformation.

COc1ccc2[nH]c(C3CCCCC3)c(/C=C3\Oc4ccc(NC(=O)Nc5ccc(C(=O)N6CCN(C)CC6)cc5)cc4C3=O)c2c1 : 0.40

Value of measured log10 IC50 for the entry Cn1cc(/C=C2\Oc3cc(O)cc(O)c3C2=O)c2c(-c3ccc(N4CCOCC4)nc3)cccc21 : 3.76

Briefly, log10 IC50 measured for CCn1c(C)c(/C=C2\Oc3ccc(NC(=O)Nc4ccc(N(C)C(=O)CCN(C)C)cc4)cc3C2=O)c2cc(OC)ccc21 : 1.98

Given item COc1ccc2[nH]cc(C=C3Oc4cc(OS(=O)(=O)C(F)(F)F)ccc4C3=O)c2c1 , the value recorded as its log10 IC50 is 3.97

The compound listed as COc1ccc2c(c1)c(/C=C1\Oc3cc(O)cc(Cl)c3C1=O)c(C)n2CCN1CCN(C)CC1 shows log10 IC50 equal to 3.25

###

target: PI3K-alpha (Homo sapiens); assay: PI3K-alpha fluorescence polarization assay; format: biochemical; settings: read-out: PI3Kα Avg. IC50
assay.readout: pIC50
When answering, recall that pIC50 equals minus log10 of the concentration in mol/L, and write that number alone.

C#CCNC(=O)Nc1ccc2c(c1)C(=O)/C(=C/c1cn(CCN3CCN(C)CC3)c3ccc(OC)cc13)O2 : 7.19
COc1ccc2c(c1)c(C=C1Oc3cc(O)cc(O)c3C1=O)cn2CCN1CCN(CCO)CC1 : 7.44
Cn1cc(/C=C2\Oc3cc(O)cc(O)c3C2=O)c2c(N3CCOCC3)cccc21 : 5.98
COc1ccc2c(c1)c(/C=C1\Oc3ccc(NC(=O)NCCCN)cc3C1=O)cn2CCN1CCN(C)CC1 : 7.03
O=C1C(=Cc2c[nH]c3cc([N+](=O)[O-])ccc23)Oc2cc(O)cc(O)c21 : 5.61

The compound listed as Cn1cc(/C=C2\Oc3cc(O)cc(O)c3C2=O)c2c(-c3ccc(C#N)cc3)cccc21 shows pIC50 equal to 6.00

Lookup result for COc1ccc2c(c1)c(C=C1Oc3cc(O)cc(O)c3C1=O)c(C)n2CCCCN1CCN(CCO)CC1 ; measured pIC50: 8.03

The compound identified as O=C1C(=Cc2c(-c3ccccc3)[nH]c3ccccc23)Oc2cccc(O)c21 registered its pIC50 at 5.60

// COc1cc(F)c2[nH]c(-c3c(C)nn(C)c3C)c(/C=C3\Oc4ccc(NC(=O)Nc5ccc(C(=O)NCCN(C)C)cc5)cc4C3=O)c2c1 : pIC50 value = 9.52

Query COc1ccc2c(c1)c(C=C1Oc3cc(O)cc(O)c3C1=O)c(C)n2CCCCN1CCOCC1 yields pIC50 of 8.06

Please fill in: pIC50 reported for COc1ccc2c(c1)c(/C=C1\Oc3cc(O)c(Cl)cc3C1=O)c(C)n2CCN1CCN(C)CC1 = 7.04

###

biological target: PI3K-alpha (Homo sapiens); test: PI3K-alpha fluorescence polarization assay; format: biochemical; conditions: read-out: PI3Kα Avg. IC50
assay.readout: pIC50
Friendly reminder that pIC50 comes from taking -log10 of the concentration in mol/L.

As a guide, the following entries are already answered.
CNC(=O)Nc1ccc2c(c1)C(=O)/C(=C/c1c(C3CC3)n(CCN3CCN(C)CC3)c3ccc(OC)cc13)O2 [Compound 559] : 8.65
COc1ccc2c(c1)c(/C=C1\Oc3cc(O)ccc3C1=O)c(C)n2CCN1CCN(C)CC1 [Example 303] : 8.66
O=C1/C(=C/c2c(-c3ccc(F)cc3)[nH]c3ccccc23)Oc2cc(O)ccc21 [Example 28] : 5.62
CNC(=O)Nc1ccc2c(c1)C(=O)/C(=C/c1c(C(=O)NC)[nH]c3ccc(OC)cc13)O2 [Compound 603] : 8.19
COc1ccc2[nH]cc(/C=C3\Oc4cc(O)cc(C(N)=O)c4C3=O)c2c1 [Compound 518] : 6.35

// field: pIC50; key: CCOC(=O)c1ccc(-c2cccc3c2c(/C=C2\Oc4cc(O)cc(O)c4C2=O)cn3C)cc1 [Example 382] ; value = 5.53

Entry COc1cc(F)c2[nH]c(-c3c(C)nn(C)c3C)c(/C=C3\Oc4ccc(NC(=O)Nc5ccc(C(=O)N6CCN(C)C(C)C6)cc5)cc4C3=O)c2c1 (stereo not shown) [Compound 730] — recorded pIC50 = 9.19

The compound listed as COc1ccc2c(c1)c(/C=C1\Oc3cc(O)ccc3C1=O)cn2CCCN(C)C [Example 324] has a reported pIC50 of 7.04

Memo: O=C1/C(=C/c2c(-c3ccc(F)cc3)[nH]c3ccccc23)Sc2ccccc21 [Example 277] , reported pIC50: 6.57

Sample Cn1c(-c2ccncc2)c(C=C2Oc3cc(O)cc(O)c3C2=O)c2ccccc21 [Example 190] ; pIC50 observed: 5.67

Quick note, pIC50 for O=C1C(=Cc2c(-c3cccc(F)c3)[nH]c3ccccc23)Oc2cc(O)cc(O)c21 [Example 210] landed at 6.17

Measured pIC50, COC(=O)c1cccc2c(C=C3Oc4cc(O)cc(O)c4C3=O)c[nH]c12 [Example 245] : 5.83

Reported pIC50 of COc1ccc2[nH]c(-c3c(C)nn(C)c3C)c(/C=C3\Oc4ccc(NC(=O)Nc5ccc(NC(=O)CCN(C)C)cc5)cc4C3=O)c2c1 [Compound 691] : 9.60

In plain terms, O=C1C(=Cc2c(-c3ccncc3)[nH]c3ccccc23)Oc2cc(O)cc(O)c21 [Example 203] has a documented pIC50 of 5.85

// sample O=C1C(=Cc2c[nH]c3cccc(Cl)c23)Oc2cc(O)cc(O)c21 [Example 171] , its pIC50 was 5.69
